Give IC50 for every item shown.
molecular target: CRBN-DDB1 (Homo sapiens, UniProt Q96SW2); assay: Fluorescence Polarization (FP) CRBN binding assay, probe TM-493 (FAM-BB-100); conditions: CRBN-DDB1, TM-493 probe, 60 min room temperature

Below, each entry is followed by its recorded IC50 result.
[
  {
    "structure.string": "Cc1ccc2c(c1)CC(=O)NC2=O",
    "endpoint.result": "> 100 µM"
  },
  {
    "structure.string": "CN1C(=O)Cc2cccc(Oc3ccccc3)c2C1=O",
    "endpoint.result": "> 100 µM"
  },
  {
    "structure.string": "NCCCCCc1ccc(Oc2cccc3c2C(=O)NC(=O)C3)cc1",
    "endpoint.result": "10 to 30 µM"
  }
]

Would you be so kind as to report IC50 for each listed record?
1. O=C1Cc2cccc(O)c2C(=O)N1
2. O=C1Cc2cccc(Cc3ccccc3)c2C(=O)N1

["30 to 100 µM", "30 to 100 µM"]

Quick request: IC50 for each listed item, please.
1. NCCCCCCCCCc1ccccc1Oc1cccc2c1C(=O)NC(=O)C2
2. CC(C)(C)OC(=O)NCCCCCCCC#Cc1cccc(Oc2cccc3c2C(=O)NC(=O)C3=O)c1

1: 10 to 30 µM; 2: 10 to 30 µM

Would you mind giving IC50 for every compound in the list below?
1. Cc1ccccc1-c1ccc2c(c1)C(=O)NC(=O)C2
2. CC(C)(C)OC(=O)NCCCC#Cc1ccc(Oc2cccc3c2C(=O)NC(=O)C3=O)cc1

1: > 100 µM; 2: < 10 µM

---

Task for the reader: assign each of the following compounds its reported pIC50.
biological target: His-tagged CRBN-DDB1 complex (Homo sapiens); assay: Time-Resolved Fluorescence Resonance Energy Transfer (TR-FRET / HTRF) CRBN binding assay, displacement of Cy5-labeled thalidomide; details: His-CRBN-DDB1, Cy5-thalidomide 8 nM, 1 hour room temperature
pIC50: −log10 of the molar value.

[
  {
    "compound": "O=C1CC2(CCN(C(=O)c3cccs3)CC2)CC(=O)N1",
    "pIC50": "< 4.00"
  },
  {
    "compound": "NCCCC#Cc1cccc(Oc2cccc3c2C(=O)NC(=O)C3)c1",
    "pIC50": "> 5.00"
  },
  {
    "compound": "O=C1NC(=O)[C@@H]2CN(C(=O)c3cncs3)C[C@H]12",
    "pIC50": "< 4.00"
  },
  {
    "compound": "Nc1ccc2c(c1)C1(CC(=O)NC1=O)NC2=O (stereo not shown)",
    "pIC50": "< 4.00"
  },
  {
    "compound": "CCCOc1ccc(N2C[C@@H]3C(=O)NC(=O)[C@@H]3C2)cc1 [Compound I-132]",
    "pIC50": "4.00 to 4.52"
  },
  {
    "compound": "O=C1Cc2ccc(Br)cc2C(=O)N1",
    "pIC50": "4.00 to 4.52"
  },
  {
    "compound": "CC(C)(C)OC(=O)NCCCC#Cc1ccc(Oc2cccc3c2C(=O)NC(=O)C3=O)cc1",
    "pIC50": "> 5.00"
  },
  {
    "compound": "Cc1cccc2c1CC(=O)NC2=O",
    "pIC50": "4.52 to 5.00"
  }
]

Hey, can you go through the list below and give me pIC50 for every item?
1. NC(=O)c1ccccc1N1C[C@@H]2C(=O)NC(=O)[C@@H]2C1
2. O=C1NC(=O)[C@@H]2CN(Cc3ccc(-c4ccccc4)cc3)C[C@H]12
3. Cc1ccccc1-c1ccc2c(c1)C(=O)NC(=O)C2
4. Cn1c(=O)c2cc(Br)ccc2n(C)c1=O
5. O=C1NC(=O)[C@@H]2CN(C(=O)c3ccnc(Cl)c3)C[C@H]12
6. O=C1CC2(CCN(c3ccc(F)cc3)CC2)CC(=O)N1
7. NCCCCCc1ccc(Oc2cccc3c2C(=O)NC(=O)C3)cc1

["< 4.00", "4.00 to 4.52", "4.00 to 4.52", "< 4.00", "< 4.00", "4.00 to 4.52", "4.52 to 5.00"]

---

target: His-tagged CRBN-DDB1 complex (Homo sapiens, UniProt Q96SW2); test: Time-Resolved Fluorescence Resonance Energy Transfer (TR-FRET / HTRF) CRBN binding assay, displacement of Cy5-labeled thalidomide; conditions: His-CRBN-DDB1, Cy5-thalidomide 8 nM, 1 hour room temperature
Sequence (Q96SW2 whole entry): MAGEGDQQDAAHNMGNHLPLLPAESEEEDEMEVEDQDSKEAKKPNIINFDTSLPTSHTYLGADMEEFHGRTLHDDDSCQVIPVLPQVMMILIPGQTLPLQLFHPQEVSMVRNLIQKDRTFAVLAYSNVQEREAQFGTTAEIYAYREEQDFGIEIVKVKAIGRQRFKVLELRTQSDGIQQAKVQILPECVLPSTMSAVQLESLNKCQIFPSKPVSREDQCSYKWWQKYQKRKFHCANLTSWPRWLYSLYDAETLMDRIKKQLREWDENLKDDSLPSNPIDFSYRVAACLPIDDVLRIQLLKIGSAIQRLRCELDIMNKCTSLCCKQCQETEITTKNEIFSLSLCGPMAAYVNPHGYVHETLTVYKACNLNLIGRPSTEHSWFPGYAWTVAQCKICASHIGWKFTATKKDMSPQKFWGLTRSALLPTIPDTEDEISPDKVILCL
Sequence (Q16531 whole entry partner): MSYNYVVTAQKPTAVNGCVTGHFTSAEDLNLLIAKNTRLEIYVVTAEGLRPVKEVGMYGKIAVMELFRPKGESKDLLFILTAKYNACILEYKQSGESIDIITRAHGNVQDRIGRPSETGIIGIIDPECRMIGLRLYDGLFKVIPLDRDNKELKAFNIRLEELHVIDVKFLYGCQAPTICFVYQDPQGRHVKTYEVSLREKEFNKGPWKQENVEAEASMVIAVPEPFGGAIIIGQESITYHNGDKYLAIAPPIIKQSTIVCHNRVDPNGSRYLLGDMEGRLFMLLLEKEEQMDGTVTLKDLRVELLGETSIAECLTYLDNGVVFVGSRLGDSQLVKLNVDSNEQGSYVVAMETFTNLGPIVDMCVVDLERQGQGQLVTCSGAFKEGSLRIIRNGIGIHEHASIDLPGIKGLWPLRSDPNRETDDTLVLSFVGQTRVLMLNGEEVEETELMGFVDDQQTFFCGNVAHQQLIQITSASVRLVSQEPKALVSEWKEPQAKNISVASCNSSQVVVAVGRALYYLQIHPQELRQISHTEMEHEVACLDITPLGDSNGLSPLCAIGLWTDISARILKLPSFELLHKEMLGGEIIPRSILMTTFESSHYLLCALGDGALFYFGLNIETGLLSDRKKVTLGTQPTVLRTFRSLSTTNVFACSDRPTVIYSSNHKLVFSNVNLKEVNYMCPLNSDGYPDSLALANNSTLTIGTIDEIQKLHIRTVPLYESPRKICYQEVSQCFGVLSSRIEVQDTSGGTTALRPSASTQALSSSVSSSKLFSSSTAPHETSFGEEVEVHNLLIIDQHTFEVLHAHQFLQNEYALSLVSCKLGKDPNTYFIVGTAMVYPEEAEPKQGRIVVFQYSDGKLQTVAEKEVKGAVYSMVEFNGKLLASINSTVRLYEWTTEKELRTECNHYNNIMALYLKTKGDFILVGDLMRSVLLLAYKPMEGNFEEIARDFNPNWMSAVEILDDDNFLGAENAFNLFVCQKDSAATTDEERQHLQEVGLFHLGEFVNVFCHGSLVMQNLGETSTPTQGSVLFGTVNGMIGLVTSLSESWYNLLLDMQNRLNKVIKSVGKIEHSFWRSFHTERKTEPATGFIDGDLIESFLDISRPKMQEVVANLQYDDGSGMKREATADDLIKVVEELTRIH
pIC50: −log10 of the molar value.
parameter.measured: pIC50

// worked examples, pIC50 included
[
  {
    "compound": "O=C1NC(=O)[C@@H]2CN(C3CCC3)C[C@H]12",
    "endpoint.result": "< 4.00"
  },
  {
    "compound": "Cc1nn(C)c2nc(N3CCC4(CC3)CC(=O)NC(=O)C4)sc12",
    "endpoint.result": "4.00 to 4.52"
  },
  {
    "compound": "O=C1NC(=O)[C@@H]2CN(c3ccc(O)cc3)C[C@H]12",
    "endpoint.result": "< 4.00"
  },
  {
    "compound": "O=C1CC2(CCN(c3ccc(-c4ccccc4)cc3)CC2)CC(=O)N1",
    "endpoint.result": "< 4.00"
  },
  {
    "compound": "Nc1ccc2c(c1)C1(CC(=O)NC1=O)C(=O)N2 (stereo not drawn)",
    "endpoint.result": "< 4.00"
  },
  {
    "compound": "O=C1CC2(CCN(Cc3cccc(O)c3)CC2)CC(=O)N1",
    "endpoint.result": "< 4.00"
  },
  {
    "compound": "CC(C)Oc1cccc(N2CCC3(CC2)CC(=O)NC(=O)C3)c1",
    "endpoint.result": "< 4.00"
  },
  {
    "compound": "O=C1Cc2cccc(Cc3ccccc3)c2C(=O)N1",
    "endpoint.result": "< 4.00"
  }
]

From here, focus on the item given below.
Record summary for COc1ccc(CN2CCC3(CC2)CC(=O)NC(=O)C3)cn1 : reported pIC50 = < 4.00

---

molecular target: His-tagged CRBN-DDB1 complex (Homo sapiens, UniProt Q96SW2); test: Time-Resolved Fluorescence Resonance Energy Transfer (TR-FRET / HTRF) CRBN binding assay, displacement of Cy5-labeled thalidomide; conditions: His-CRBN-DDB1, Cy5-thalidomide 8 nM, 1 hour room temperature
pIC50: −log10 of the molar value.
parameter.measured: pIC50

Solved entries:
[
  {
    "compound": "O=C1Cc2cccc(CNc3ccccc3)c2C(=O)N1 [Compound I-278]",
    "test.system": "His-tagged CRBN-DDB1 complex (Homo sapiens, UniProt Q96SW2)",
    "pIC50": "4.52 to 5.00"
  },
  {
    "compound": "Cc1ccccc1Oc1cccc2c1C(=O)NC(=O)C2=O [Compound I-253]",
    "test.system": "His-tagged CRBN-DDB1 complex (Homo sapiens, UniProt Q96SW2)",
    "pIC50": "4.52 to 5.00"
  }
]

Batch request: pIC50 for each of the following compounds.
1. CN(Cc1ccccc1)C(=O)c1cccc2c1C(=O)NC(=O)C2 [Compound I-280]
2. CC(=O)Nc1cccc(N2C[C@@H]3C(=O)NC(=O)[C@@H]3C2)c1 [Compound I-136]
3. O=C1CC2(CCN(c3ccc(F)cc3Cl)CC2)CC(=O)N1 [Compound I-110]

["4.00 to 4.52", "< 4.00", "< 4.00"]

---

target: His-tagged CRBN-DDB1 complex (Homo sapiens, UniProt Q96SW2); assay: Time-Resolved Fluorescence Resonance Energy Transfer (TR-FRET / HTRF) CRBN binding assay, displacement of Cy5-labeled thalidomide; settings: His-CRBN-DDB1, Cy5-thalidomide 8 nM, 1 hour room temperature
parameter.measured: IC50

Would you please look over these solved cases?
[
  {
    "structure.string": "O=C1NC(=O)[C@@H]2CN(C(=O)c3n[nH]c4ccccc34)C[C@H]12",
    "endpoint.result": "> 100 µM"
  },
  {
    "structure.string": "NCCCCCc1cccc(Oc2cccc3c2C(=O)NC(=O)C3)c1",
    "endpoint.result": "< 10 µM"
  },
  {
    "structure.string": "COc1cc(F)ccc1N1CCC2(CC1)CC(=O)NC(=O)C2",
    "endpoint.result": "> 100 µM"
  }
]

# value of IC50, His-tagged CRBN-DDB1 complex (Homo sapiens, UniProt Q96SW2), item O=C1NC(=O)[C@@H]2CN(c3ccc(Oc4ccccc4)cc3)C[C@H]12 = 30 to 100 µM

---

target: His-tagged CRBN-DDB1 complex (Homo sapiens, UniProt Q96SW2); assay: Time-Resolved Fluorescence Resonance Energy Transfer (TR-FRET / HTRF) CRBN binding assay, displacement of Cy5-labeled thalidomide; settings: His-CRBN-DDB1, Cy5-thalidomide 8 nM, 1 hour room temperature
parameter.measured: IC50

Here is how some compounds turned out for IC50.
[
  {
    "compound": "O=C1CC2(CCc3ccccc32)C(=O)N1 (stereo not drawn)",
    "IC50": "> 100 µM"
  },
  {
    "compound": "COc1cccc(N2C[C@@H]3C(=O)NC(=O)[C@@H]3C2)c1",
    "IC50": "> 100 µM"
  },
  {
    "compound": "O=C1CC2(CCN(Cc3cccc4ccccc34)CC2)CC(=O)N1",
    "IC50": "> 100 µM"
  },
  {
    "compound": "CC(C)(C)OC(=O)NCc1ccc(N2CCC3(CC2)CC(=O)NC(=O)C3)cc1",
    "IC50": "30 to 100 µM"
  },
  {
    "compound": "O=C1Cc2cccc(COc3ccccc3)c2C(=O)N1",
    "IC50": "10 to 30 µM"
  }
]

I have 2 compounds here; please give me IC50 for each one.
1. O=C1NC(=O)[C@@H]2CN(c3cccc4cccnc34)C[C@H]12
2. CC(C)(C)OC(=O)NCCCCCCCCCc1ccc(Oc2cccc3c2C(=O)NC(=O)C3=O)cc1

1. > 100 µM
2. < 10 µM

Batch request: IC50 per item, same order as input.
1. NC(=O)c1ccccc1-c1cccc2c1C(=O)NC(=O)C2
2. O=C1NC(=O)[C@@H]2CN(C(=O)c3cc4ccccc4cn3)C[C@H]12
3. O=C1NC(=O)C2(CC2)c2cccc(Br)c21
4. O=C1NC(=O)[C@@H]2CN(C(=O)c3cnccn3)C[C@H]12
5. O=C1NC(=O)[C@@H]2CN(C(=O)c3ccco3)C[C@H]12
6. O=C1CC2(CCN(c3ccc(OC(F)(F)F)cc3)CC2)CC(=O)N1
7. CC(C)(C)OC(=O)NCCCC#Cc1ccc(Oc2cccc3c2C(=O)NC(=O)C3)cc1

["> 100 µM", "> 100 µM", "> 100 µM", "> 100 µM", "> 100 µM", "> 100 µM", "> 100 µM"]

Give IC50 for all compounds that follow.
1. NCCCCCCCCCc1ccc(Oc2cccc3c2C(=O)NC(=O)C3)cc1
2. O=C1NC(=O)[C@@H]2CN(CCc3ccccc3)C[C@H]12
3. O=C1NC(=O)[C@@H]2CN(C3CCCC3)C[C@H]12

1. < 10 µM
2. > 100 µM
3. > 100 µM

IC50 value, target or system His-tagged CRBN-DDB1 complex (Homo sapiens, UniProt Q96SW2), for O=C1CC2(CCNCC2)CC(=O)N1 : > 100 µM
